target-entity: MALAT1
experimental-parameters: ASO, A431, 0.005 µM
After the bases stand the sugars from the 5' end (letter, count) and the backbone: PS all phosphorothioate, else s phosphorothioate and o phosphodiester by linkage. Methylation of C is not given here. k = constrained ethyl (cEt); d = 2'-deoxy (DNA)
Each entry below lists one item and its recorded target mRNA inhibition value.
Reply numerically in %, unit not repeated.

Some entries whose results are on file:
GGAATGGCCAGCCTAT (sugars k3 d10 k3, PS)	17
CCCCCGGAACTTTTAA (sugars k3 d10 k3, PS)	-12
TCAAAATCCTGAATGG (sugars k3 d10 k3, PS)	38
GGAAAGCGAGTTCAAG (sugars k3 d10 k3, PS)	24
CCCTACTGAAGAGCAT (sugars k3 d10 k3, PS)	13

Input CGGAAATTTTTCTACC (sugars k3 d10 k3, PS) . Output target mRNA inhibition: 8

GET /value?item= TAGGCTTTAAATGACG (sugars k3 d10 k3, PS) &field=target mRNA inhibition returns 26

For record GCCCACCCTCTAAGAG (sugars k3 d10 k3, PS) the listed target mRNA inhibition is 18

For reference, reported target mRNA inhibition for TATTGGTATTAATTCG (sugars k3 d10 k3, PS) stands at 13

According to the records, this sequence TAGTACTATAGCATCT (sugars k3 d10 k3, PS) displays target mRNA inhibition of 49

target mRNA inhibition reported for this sequence TAGGTATGAGCTTCAG (sugars k3 d10 k3, PS) : 4

For record TATACTTCTCCAATAC (sugars k3 d10 k3, PS) the listed target mRNA inhibition is 18

get_value(item= CGAAGACACAGAGACC (sugars k3 d10 k3, PS) , readout=target mRNA inhibition) returns 10

Field target mRNA inhibition (entry ATAATCTCCCACCTGT (sugars k3 d10 k3, PS) ) reads 17

Quick note, target mRNA inhibition for TCATGGATTTCAAGGT (sugars k3 d10 k3, PS) landed at 51

Record summary for AGACCAACTAAGCGAA (sugars k3 d10 k3, PS) : reported target mRNA inhibition = 38

The sequence listed as ATTCCTTATTTAGAGG (sugars k3 d10 k3, PS) has a reported target mRNA inhibition of -11

Given item TACTCTAATCACTGTC (sugars k3 d10 k3, PS) , the value recorded as its target mRNA inhibition is 15

Data point: AGGCTTTAAATGACGC (sugars k3 d10 k3, PS) ; target mRNA inhibition = -11

Briefly, target mRNA inhibition measured for CAGTCCTTTTAGTAGC (sugars k3 d10 k3, PS) : 57

* * *

target-entity: KRAS
experimental-parameters: ASO, NCI-H460, 0.037 µM
After the bases stand the sugars from the 5' end (letter, count) and the backbone: PS all phosphorothioate, else s phosphorothioate and o phosphodiester by linkage. Methylation of C is not given here. k = constrained ethyl (cEt); d = 2'-deoxy (DNA)
measure: target mRNA inhibition (%)
// note: answer is a bare numeric in %

AGGTAAAAGCTAACAG (sugars k3 d10 k3, PS)	37.3
TGACTAATAGCAGTGG (sugars k3 d10 k3, PS)	53.3

Value of measured target mRNA inhibition for the entry TCTCTATGAAAGCTCA (sugars k3 d10 k3, PS) : 49.7

The sequence listed as GTGTTTATGCAATGTT (sugars k3 d10 k3, PS) shows target mRNA inhibition equal to 76.8

Measured target mRNA inhibition of CCATTTATGTGACTAG (sugars k3 d10 k3, PS) : 52.4

Reference source: the OligoGym collection
